Collected from the literature: IC50 of various molecules toward Cyclin-dependent kinase 1 (Homo sapiens).
Parameter: IC50 (µM)

[
  {
    "Molecule": "CC(C)n1nnc2ccc(-c3ccnc(Nc4cc(C(=O)N5CCCC5)ccn4)c3)cc21",
    "Parameter": "IC50",
    "Reported Measurement": 0.161
  }
]

A = COc1cc(F)ccc1-c1cc(Nc2cc(CS(C)(=N)=O)ccn2)ncc1F (stereo not given)
B = CC(C)N1CCN(C(=O)c2ccnc(Nc3cc(-c4ccc5nnn(C(C)C)c5c4)ccn3)c2)CC1
C = CNC(=O)c1nn(C)c2c1C(C)(C)Cc1cnc(Nc3ccc(N4CCN(C)CC4)cc3)nc1-2
Inquiry: List these items ordered by IC50, big to small. A ranking is expressed here by listing the labels in the requested order.
Reply text: A, B, C
(A: 0.25 µM, B: 0.125 µM, C: 0.045 µM)
